system: A549; experiment: Euclidean distance of Cell Painting phenotypic profile (signed KS, 77 features) to DMSO centroid (dimensionless distance); 5 or 10 uM (library dependent); higher = stronger phenotypic change vs DMSO (phenoactivity); conditions: 48 h
Where a name gives a salt, the structure may show the parent alone.
# Euclidean distance values compiled below
Observable: Euclidean distance

1. CC(CN(C)C)CN1c2ccccc2Sc2ccccc21 (configuration not stated) [Alimemazine Tartrate]; 1.55
2. Nc1ccc(S(=O)(=O)Nc2ccc(Cl)nn2)cc1 [Sulfachloropyridazine]; 1.01
3. CC(C(=O)O)c1ccc(C(=O)c2cccs2)cc1 (configuration not stated) [Suprofen]; 0.825
4. Cc1cnc(C(=O)N[C@H]2CCCCC/C=C\[C@@H]3C[C@@]3(C(=O)NS(=O)(=O)C3CC3)NC(=O)[C@@H]3C[C@@H](Oc4nc5ccccc5c5ccccc45)CN3C2=O)cn1 [Paritaprevir (ABT-450)]; 1.53
5. CN(C)C(=O)c1ccc(S(=O)(=O)c2ccc(NC(=O)[C@@](C)(O)C(F)(F)F)c(Cl)c2)cc1; 1.81
6. CCn1c(=O)c(-c2cc(NC(=O)Nc3ccccc3)c(F)cc2Br)cc2cnc(NC)cc21 [Ripretinib (DCC-2618)]; 3.27
7. O=C(Nc1ccc(Oc2ccc(Cl)cc2)c(Cl)c1)c1cc(I)cc(I)c1O [Rafoxanide]; 1.72
8. C[N+](C)(C)CCOC(=O)CCC(=O)OCC[N+](C)(C)C [Succinylcholine Chloride Dihydrate]; 2.04
9. CC(C)n1nc(-c2ccc3oc(N)nc3c2)c2c(N)ncnc21; 3.47
10. CCCc1cc(C)[nH]c(=O)c1CNC(=O)c1cc(-c2ccc(N3CCN(C(C)C)CC3)nc2)cc2c1cnn2C(C)C; 1.62
11. CN1CCN(C2=Nc3ccccc3Oc3ccc(Cl)cc32)CC1 [Loxapine Succinate]; 0.901
12. CN(C)CCC=C1c2ccccc2COc2ccccc21 [Doxepin HCl]; 1.14
13. Cn1c(=O)cc(N2CCC[C@@H](N)C2)n(Cc2cc(F)ccc2C#N)c1=O [Trelagliptin succinate]; 1.21
14. O=C(O)c1cccnc1 [Nicotinic Acid]; 0.435
15. Oc1c(I)cc(I)c2cccnc12 [Diiodohydroxyquinoline]; 1.68
16. CC(C)N(CCCCOCC(=O)NS(C)(=O)=O)c1cnc(-c2ccccc2)c(-c2ccccc2)n1 [Selexipag]; 1.04
17. Cc1nccn1CCC(C(N)=O)(c1ccccc1)c1ccccc1 [Imidafenacin]; 1.19

---

test system: FB; assay: Euclidean distance of Cell Painting phenotypic profile (signed KS, 77 features) to DMSO centroid (dimensionless distance); 5 or 10 uM (library dependent); higher = stronger phenotypic change vs DMSO (phenoactivity); conditions: 48 h
Observable: Euclidean distance

1. CC12CCC(CC1=O)C2(C)C (configuration not stated); 0.818
2. CCc1oc2ccccc2c1C(=O)c1cc(Br)c(O)c(Br)c1; 1.01
3. CC(=O)O[C@H]1CC[C@@]2(C)C(=CC[C@@H]3[C@@H]2CC[C@]2(C)C(c4cccnc4)=CC[C@@H]32)C1 [Abiraterone Acetate]; 0.94
4. CC(C)(C)C#Cc1cc(N(C(=O)[C@H]2CC[C@H](C)CC2)[C@H]2CC[C@H](O)CC2)c(C(=O)O)s1; 0.678
5. C[C@@H]1C[C@H]2[C@@H]3C[C@H](F)C4=CC(=O)C=C[C@]4(C)[C@@]3(F)[C@@H](O)C[C@]2(C)[C@@]1(OC(=O)c1ccco1)C(=O)SCF [fluticasone furoate]; 2.29
6. CCCCOC(=O)c1ccc(N)cc1; 1.05
7. COc1ccc(CC2c3cc(OC)c(OC)cc3CC[N+]2(C)CCC(=O)OCCCCCOC(=O)CC[N+]2(C)CCc3cc(OC)c(OC)cc3C2Cc2ccc(OC)c(OC)c2)cc1OC (configuration not stated) [Atracurium Besylate]; 0.918
